- system: 6-His tagged Bcl w delta C10 protein (UniProt Q92843)
- assay_overview: competition assay; competitor: biotinylated Bim-BH3 peptide
Bridge positions count the residues as written; N and C are the ends.
parameter_measured: IC50 (nM)

(I) Ac-IAQELRRIGDEF-NH2 (linker 4-11 via 1,6‑diaminohexane) [Peptide C: Ac-IAQ-E-LRRIGD-E-F-NH2 with a 1,6-diaminohexane linker]
(II) Ac-IAQELRRIGDEF-NH2 (linker 4-11 via 1,5‑diaminopentane) [Acetyl-IAQ(E1)LRRIGD(E2)F-amide with a 1,5-diaminopentane linker (second position)]
(III) Ac-IAQELRRIGDEF-NH2 [Linear 12mer Ac-…-NH2]
(IV) Ac-EIAQELREIGDEF-NH2 (linker 1-8 via 1,5‑diaminopentane) [Peptide A of Example 7: Ac-E-IAQELR-E-IGDEF-NH2 with a 1,5-diaminopentane linker (first position)]
Sort ascending by IC50. Use the labels to give the ranking in the order requested.
II, I, III, IV
